# TEST: qHTS for Antagonists of gsp, the Etiologic Mutation Responsible for Fibrous Dysplasia/McCune-Albright Syndrome: qHTS; further: nearly all actives have a fitted effect of over 65% in size
# STATED CONDITIONS: gsp-mutant cells, cAMP HTRF, 30 min; series mostly up to 76.9 µM
Among all 340,000 compounds or so, about 1,400 (0.41%) were called active. Not shown: some 4% with an inconclusive outcome. The call rests on the fitted dose curve; cell line not stated here. The full list was thinned out, with actives kept by preference.
Please reply with one of these outcomes: true = active, false = inactive

Please review the entries below; each comes with its answer.
S=c1[nH]nc(-c2ccncc2)n1/N=C/c1ccccc1Cl ... false
O=C(Cc1ccc([N+](=O)[O-])cc1)NCCc1ccc2c(c1)OCO2 ... false
N#CC1(Nc2ccc(-c3ccc(Cl)cc3)cc2)CCCC1 ... false
COc1ccc(C(=O)OCC(=O)c2ccc(C)c(S(=O)(=O)N3CCOCC3)c2)cc1OC ... true
CC(C)(C)OC(=O)N1CCC(C(=O)Nc2cccc(C(=O)NCCc3ccccc3)c2)CC1 ... false
COC(=O)Cc1c(-c2[nH]c3ccccc3c2CC(=O)OC)[nH]c2ccccc12 ... false
C(=N/Nc1cc(N2CCOCC2)nc(N2CCOCC2)n1)/c1ccccc1 ... false
COc1cccc(CNS(=O)(=O)c2ccc3c(c2)CC(C)N3C(C)=O)c1 (stereo unspecified) ... false

Ask: What classification did `Nc1cc(=O)n(Cc2ccccc2)c(=O)n1Cc1ccccc1` end up with in this test?
Reply: false

Ask: What classification did NC1=NOC(=O)C1C1CCCCC1 (stereo unspecified) end up with in this test?
Reply: false

Ask: What classification did `O=C(CNC(=O)c1cc(S(=O)(=O)N2CCOCC2)ccc1N1CCCC1)Nc1ccc(F)c(F)c1` end up with in this test?
Reply: false

* * *

# TEST: qHTS for Antagonists of gsp, the Etiologic Mutation Responsible for Fibrous Dysplasia/McCune-Albright Syndrome: qHTS; further: nearly all actives have a fitted effect of over 65% in size
# STATED CONDITIONS: gsp-mutant cells, cAMP HTRF, 30 min; series mostly up to 76.9 µM
Screen size: about 340,000 compounds; about 1,400 (0.41%) were called active. Not shown: some 4% with an inconclusive outcome. Calls come from the whole dose curve; cell line not stated here. Shown is part of a subset that was picked to be rich in actives.
Please reply with one of these outcomes: active, inactive

Cc1ccc(SCC(=O)N2CCN(c3ccc(F)cc3)CC2)cc1 ... inactive
CCOC(=O)N1CCN(C(=O)CN(c2ccc(C)c(C)c2)S(=O)(=O)c2ccccc2)CC1 ... inactive
O=C(Cc1ccc(S(=O)(=O)N2CCOCC2)s1)Nc1ccc(Br)c(C(F)(F)F)c1 ... inactive
O=C(NC1=CC(=O)c2ccccc2C1=O)c1ccccc1 ... inactive
Cn1c(=O)n(C)c2cc(/C=N/NC(=O)c3cccc(Br)c3)ccc21 ... inactive
CN(C)/N=C/c1cc(Cl)cc([N+](=O)[O-])c1O ... inactive
COc1ccc(/C=C2\SC(=S)N(CC(=O)NNC(=O)c3ccncc3)C2=O)cc1 ... inactive
CN(CCO)S(=O)(=O)c1ccc2c(c1)C(=O)c1cc(S(=O)(=O)N(C)CCO)ccc1-2 ... active
CC(=O)N(C1=C(Cl)C(=O)c2ccccc2C1=O)c1ccc(C(=O)O)cc1 ... active
O=C(Nc1cccc(S(=O)(=O)Nc2ccc(Cl)cc2)c1)c1ccc2c(c1)OCCO2 ... active

Ask: What classification did `COc1ccc(-c2nn(-c3ccccc3)cc2/C=C2/SC(=S)N(CCCC(=O)O)C2=O)c(C)c1` end up with in this test?
Reply: active

Ask: What classification did `CCC(=O)Oc1cccc(C(=O)Nc2ccc(-c3nnc(-c4ccco4)o3)cc2)c1` end up with in this test?
Reply: active

Ask: What classification did `Cc1cccc(N=Nc2c(C)[nH]n(-c3ccccc3)c2=O)c1` end up with in this test?
Reply: inactive

Ask: What classification did `Cc1nn(-c2ccccc2)c(C)c1NC(=O)CCl` end up with in this test?
Reply: inactive

Ask: What classification did `CN(CC(=O)O)S(=O)(=O)c1ccc2oc3ccccc3c2c1` end up with in this test?
Reply: inactive

Ask: What classification did `O=C(O)c1ccc(Cn2cnc3c(=S)nc[nH]c32)cc1` end up with in this test?
Reply: inactive

Ask: What classification did `NC(=O)C1(Nc2ccc(-c3ccccc3)cc2)CCCC1` end up with in this test?
Reply: inactive

Ask: What classification did `O=C(N/N=C/c1cccc(Br)c1)c1ccc(N2CCCC2=O)cc1` end up with in this test?
Reply: active

Ask: What classification did `CCCc1cc(=O)n2[nH]c(C)c(-c3ccc(Cl)cc3)c2n1` end up with in this test?
Reply: inactive

Ask: What classification did `Cc1ccc(CSc2nc(-c3ccccc3)c(C#N)c(=O)[nH]2)cc1` end up with in this test?
Reply: inactive

Ask: What classification did `NC(=O)C1(Nc2ccccc2Cl)CCCC1` end up with in this test?
Reply: inactive

Ask: What classification did `CC1(C)N=C(N)NC(Nc2ccc(Cl)cc2)=N1` end up with in this test?
Reply: inactive

Ask: What classification did `O=[N+]([O-])c1cc(Cl)cc(/C=N/NC(=S)Nc2cc(S(=O)(=O)N3CCOCC3)ccc2Cl)c1O` end up with in this test?
Reply: active

Ask: What classification did `Cc1ccc(-c2nn(-c3ccccc3)cc2/C=C2\SC(=S)N(CCCCCC(=O)O)C2=O)o1` end up with in this test?
Reply: active

Ask: What classification did `Cc1ccc(C)c(N2CCN(C(=O)CCCCCn3c(=S)[nH]c4ccc(N5CCOCC5)cc4c3=O)CC2)c1` end up with in this test?
Reply: active

Ask: What classification did `C(=N\N1CCN(c2ccccn2)CC1)/C1=C(N2CCOCC2)C(=C/c2ccccc2)/CC1` end up with in this test?
Reply: inactive

Ask: What classification did `Cc1cc(NC(=O)COc2ccccc2C#N)no1` end up with in this test?
Reply: active
